Ref: paper PMC4336329

# TARGET: human ether-à-go-go-related gene (hERG) potassium channel (human)
# PROCEDURE_TEXT: primary screen, population patch clamp on CHO cells stably expressing hERG; higher = less effect of the substance
The whole screen tested about 310,000 compounds, of which about 14,000 (4.5%) showed an effect of 50% or more. Effects have a minus sign here. Many of the other results were omitted from the sample, so strong results are more common in it than they were.
PARAMETER: hERG current change (%, negative = inhibition) at 10uM (%)
# output: bare number, implied unit %

COMPOUND: O=C(CCCc1ccccc1)NCc1ccc(Cl)cc1
REPORTED_MEASUREMENT: -15.3

COMPOUND: O=C(NCc1ccccc1Cl)C1CCN(S(=O)(=O)c2ccc(F)cc2)CC1
REPORTED_MEASUREMENT: -45.6

COMPOUND: CCN(CC(=O)NCc1ccc(Cl)cc1)C(=O)NCc1ccc(Cl)cc1
REPORTED_MEASUREMENT: -48.4

Req: Form field - read-out: hERG current change (%, negative = inhibition) at 10uM; system: human ether-à-go-go-related gene (hERG) potassium channel (human); submitted item: CCOC(=O)C1CCN(C(=O)Cc2ccc(-c3ccccc3)cc2)CC1
Resp: -57.7

Req: Now consider CCc1ccccc1SCc1noc(C(=O)NCC2CCCO2)c1C(=O)O (centres unmarked) and answer again.
Resp: 2.36

Req: Now consider CCN(CC(=O)NCc1ccc(Cl)cc1)C(=O)C(C)Sc1ccccc1 (centres unmarked) and answer again.
Resp: -33.8

Req: Now consider O=C(Cc1ccccc1[N+](=O)[O-])NCc1ccc(Cl)cc1 and answer again.
Resp: 5.25

Req: Now consider CCOC(=O)C1CCN(C(=O)CCc2c(C)nc3cc(-c4ccccc4)nn3c2C)CC1 and answer again.
Resp: -78.5

###

# TARGET: human ether-à-go-go-related gene (hERG) potassium channel (human, UniProt Q12809)
# Sequence (Q12809 whole entry, looked up): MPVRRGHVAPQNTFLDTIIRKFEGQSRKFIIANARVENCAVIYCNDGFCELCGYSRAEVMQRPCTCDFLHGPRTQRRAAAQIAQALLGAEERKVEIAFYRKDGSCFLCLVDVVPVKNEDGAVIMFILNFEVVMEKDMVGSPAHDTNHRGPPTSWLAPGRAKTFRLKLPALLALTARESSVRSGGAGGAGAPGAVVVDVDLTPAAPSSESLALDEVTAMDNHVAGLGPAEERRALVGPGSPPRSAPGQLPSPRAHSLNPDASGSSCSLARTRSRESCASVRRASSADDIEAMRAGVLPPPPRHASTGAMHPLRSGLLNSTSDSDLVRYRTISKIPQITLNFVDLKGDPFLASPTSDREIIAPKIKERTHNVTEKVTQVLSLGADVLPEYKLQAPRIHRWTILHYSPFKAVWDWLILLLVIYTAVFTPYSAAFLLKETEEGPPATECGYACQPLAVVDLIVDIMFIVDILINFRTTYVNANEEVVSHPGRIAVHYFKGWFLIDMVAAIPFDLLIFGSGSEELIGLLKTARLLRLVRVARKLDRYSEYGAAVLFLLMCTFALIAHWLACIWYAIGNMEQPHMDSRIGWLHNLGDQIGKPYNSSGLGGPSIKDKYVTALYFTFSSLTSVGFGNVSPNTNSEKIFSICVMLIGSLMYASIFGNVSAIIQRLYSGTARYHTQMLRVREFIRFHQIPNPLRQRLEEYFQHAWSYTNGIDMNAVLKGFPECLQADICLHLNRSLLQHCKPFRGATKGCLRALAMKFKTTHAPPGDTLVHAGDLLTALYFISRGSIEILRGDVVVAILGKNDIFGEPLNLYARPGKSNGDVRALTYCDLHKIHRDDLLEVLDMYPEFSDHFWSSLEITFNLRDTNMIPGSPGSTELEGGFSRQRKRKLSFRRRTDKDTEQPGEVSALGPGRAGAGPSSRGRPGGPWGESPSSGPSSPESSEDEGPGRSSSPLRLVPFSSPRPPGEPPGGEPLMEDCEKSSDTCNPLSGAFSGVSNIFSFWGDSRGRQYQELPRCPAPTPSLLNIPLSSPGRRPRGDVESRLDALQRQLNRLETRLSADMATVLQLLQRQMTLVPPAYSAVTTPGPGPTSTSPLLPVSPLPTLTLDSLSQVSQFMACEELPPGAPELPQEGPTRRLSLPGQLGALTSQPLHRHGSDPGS
# PROCEDURE_TEXT: primary screen, population patch clamp on CHO cells stably expressing hERG; higher = less effect of the substance
In all, about 310,000 compounds went through this assay and about 14,000 (4.5%) showed an effect of 50% or more. The effect is printed as a negative number. Many of the other results were omitted from the sample, so strong results are more common in it than they were.
PARAMETER: hERG current change (%, negative = inhibition) at 10uM (%)
# output: bare number, implied unit %

Example entries and their recorded answers appear below.
MOLECULE: CCOc1ccc(/C(CCC(=O)O)=N/NC(=S)NC(C)C)cc1
TARGET: human ether-à-go-go-related gene (hERG) potassium channel (human, UniProt Q12809)
REPORTED_MEASUREMENT: 14.1

MOLECULE: O=C(N/N=C/c1ccc(Br)s1)Nc1ccccc1
TARGET: human ether-à-go-go-related gene (hERG) potassium channel (human, UniProt Q12809);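 note: peak tail current of the secondary pulse compared with the same well before compound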
REPORTED_MEASUREMENT: 4.13

MOLECULE: COc1c(C)cc(C(=O)C2CCCN(Cc3cnc(C)s3)C2)cc1C (centres unmarked)
TARGET: human ether-à-go-go-related gene (hERG) potassium channel (human, UniProt Q12809);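 note: peak tail current of the secondary pulse compared with the same well before compound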
REPORTED_MEASUREMENT: -7.68

MOLECULE: O=C(Oc1cc2oc(=O)cc(-c3ccccc3)c2cc1Cl)C1CCCCC1
TARGET: human ether-à-go-go-related gene (hERG) potassium channel (human, UniProt Q12809);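 note: peak tail current of the secondary pulse compared with the same well before compound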
REPORTED_MEASUREMENT: 4.05

MOLECULE: COc1ccccc1C(=O)C1CCCN(Cc2cn[nH]c2C2CCCCC2)C1 (centres unmarked)
TARGET: human ether-à-go-go-related gene (hERG) potassium channel (human, UniProt Q12809);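 note: peak tail current of the secondary pulse compared with the same well before compound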
REPORTED_MEASUREMENT: -31.5

Req: // hERG current change (%, negative = inhibition) at 10uM lookup, key: CSc1ccc(C(=O)C2CCCN(Cc3cccc4nccnc34)C2)cc1 (centres unmarked)
Resp: -82.8

Req: Now consider c1ccc2[nH]c(CN3CCCCC3)nc2c1 and answer again.
Resp: 1.41

Req: Now consider COc1ccc(N2CCN(CC(=O)c3c[nH]c4ccccc34)CC2)cc1 and answer again.
Resp: 8.09

Req: Now consider Cl.O=C(NCCCN1CCOCC1)C(=O)c1c[nH]c2ccccc12 and answer again.
Resp: -3.03

Req: Now consider Cc1ccc(/C=N/N2CCN(Cc3ccccc3)CC2)s1 and answer again.
Resp: -15.7

Req: Now consider COc1ccc(N2CCN(CCCNC(=O)C(=O)c3c(C)[nH]c4ccccc34)CC2)cc1 and answer again.
Resp: -53.3

Req: Now consider CCOc1ccccc1NS(=O)(=O)c1ccc2c(c1)NC(=O)CCS2 and answer again.
Resp: -46

Req: Now consider O=C(Nc1ccccc1C(F)(F)F)N1CCCCCC1 and answer again.
Resp: 8.71

Req: Now consider COc1c(C)cc(C(=O)C2CCCN(Cc3cccc4nccnc34)C2)cc1C (centres unmarked) and answer again.
Resp: -64.5

Req: Now consider Cc1ccccc1C1=NC(C(F)(F)F)(C(F)(F)F)c2c(n(-c3ccc(F)cc3)c(=O)[nH]c2=O)N1 and answer again.
Resp: 12.5
